Tested on: SW-620
Assay: NCI tumour cell line growth inhibition, 48 h
The source made the active and inactive calls. Rule as the data show it: active = GI50 up to about 1.1 µM and inactive = higher.
Just give me one of these, please: active, inactive

Use the examples below as a reference point.
// query Kindly provide the recorded test outcome for the following compound: CC(=O)N(C(C)=O)c1cc2c3c(c1)CCCN3CCC2
// result inactive

// query Assay outcome for N#Cc1cnn2ccn(C3OC(COC(=O)c4ccccc4)C(OC(=O)c4ccccc4)C3OC(=O)c3ccccc3)c12 (configuration not stated) : what was it?
// result inactive

// query Please state the recorded outcome for this compound: BrC/C=C/C[P+](c1ccccc1)(c1ccccc1)c1ccccc1
// result inactive

---
// query Give the logged outcome of this assay for the following compound: CSc1[nH]nc(N)c1C(=O)Nc1ccccc1
// result inactive

// query Entry CNN1C(=O)c2c(N)c(C#N)c(-c3ccccc3)c(-c3ccccc3)c2C1=O : call = ?
// result inactive

// query Hi, do you know how O=C(Cc1nc(-c2ccccc2)cc(=O)n1-c1ccccc1Cl)c1ccncc1 came out in this test?
// result inactive

// query Hello, I am checking results. What call was entered for O=c1cc(NCC2CCCCC2)[nH]c(=O)[nH]1 ?
// result inactive

// query Given C1=Cc2cccc3occ(c23)C=C1 , state the outcome it received in this test.
// result inactive

// query Please let me know the test result on file for CN(NC(=O)CCCl)C1=NCCN1 .
// result inactive

###

Test system: MCF7
Test: NCI tumour cell line growth inhibition, 48 h
Calls of active or inactive are those of the source. Rule as the data show it: active = GI50 up to about 1.1 µM and inactive = higher.
Entry note: the call must match one of active, inactive

Before answering, review these 5 worked examples.
// query Hey, what did the test say about COc1ccc2c3c(ccc2c1)NC(C(=O)O)CC3 (stereo unspecified) ?
// result inactive

// query Given COc1ccc(NC(C)=O)cc1N1C(=O)/C(=C\c2cccc(Oc3ccccc3)c2)SC1c1ccccc1 (stereo unspecified) , state the outcome it received in this test.
// result inactive

// query Hi team, can someone confirm the assay call for C/C(=N\Nc1nc2cc(C)ccc2s1)c1ccccn1 ?
// result active

// query Dear all, I need the recorded test outcome for CC(C)(C)c1cc(S(=O)(=O)O)c2oc(-c3ccccc3)cc(=O)c2c1 , thank you.
// result inactive

// query For this compound, state the assay outcome: O=S1(=O)OCCOS(=O)(=O)C1(F)Br
// result inactive

***
// query Look up the recorded call for COc1ccc(OC)c(C2CCCc3c2cnc2nc(N)nc(N)c32)c1 (stereo unspecified) in this test.
// result active

###

Tested on: LOX IMVI
Assay: NCI tumour cell line growth inhibition, 48 h
The source made the active and inactive calls. Rule as the data show it: active = GI50 up to about 1.1 µM and inactive = higher.
Valid outcomes are listed here; reply with one: Y (active), N (inactive)

// query Test call, this compound: CC(C)[Si](OC1=C(C(=O)N(C)c2cccc(Cl)c2)CCCC1)(C(C)C)C(C)C
// result N

Consider now this further compound.
// query Kindly provide the recorded test outcome for the following compound: Nc1n[n+](-c2ccccc2)no1
// result N

###

Task for the reader: assign each of the following molecules its reported GI50.
Tested on: COLO 205
Test: NCI tumour cell line growth inhibition, 48 h
Calls of active or inactive are those of the source. No stated cut-off is given here; in the data, active = GI50 up to about 1.1 µM and inactive = higher. Where a SMILES comes first, the peptide text is derived from it. The star is where a group is joined. X33 = O=C(c1ccc(-c2ccc(Cl)cc2Cl)o1)*

Example entries and their recorded answers appear below.
// query Give a short answer stating reported GI50 for CCC(C)C(NC(=O)CNC(=O)C(Cc1ccccc1)NC(=O)C1CCCN1C(=O)c1ccc(-c2ccc(Cl)cc2Cl)o1)C(=O)OC (stereo not given) (X33-PFGI-OMe; configuration not given here) .
// result 31.6 µM (inactive)

// query // fetch GI50 given entry Cc1cccc(CC(Cc2c(C)cccc2C(=O)O)C(=O)O)c1 (stereo not given)
// result > 100 µM (inactive)

// query Please give measured GI50 of the following entry: Cc1nc2ccccc2c(=O)n1-c1n[nH]c2ccccc12
// result > 100 µM (inactive)

// query Query GI50 for O=C(c1ccccc1)C1OC12C(=O)Nc1c(Cl)cc(Cl)cc12 (stereo not given)
// result 19.7 µM (inactive)

// query Read the entry CC(C)[Si](OC1=C(C(=O)N(C)c2cccc(Cl)c2)CCCC1)(C(C)C)C(C)C and write its reported GI50.
// result 15.1 µM (inactive)

// query Using known records, supply GI50 for CCOC(=O)[C@@]12CCC(C1=O)[C@](C)(O)C[C@@H]2c1ccccc1
// result 44.4 µM (inactive)

Value sought for every listed molecule: GI50.
1. CNC(=O)OCc1cnc([N+](=O)[O-])n1C
2. CNc1nnc(CCCCCCCCc2nnc(NC)o2)o1
3. NC1C2(CCCCCC2)NC(=O)C12CCCCCC2 (stereo not given)
4. c1ccc2c(c1)ccc1nc3ccccn3c12

// result
1. > 100 µM (inactive)
2. > 100 µM (inactive)
3. > 100 µM (inactive)
4. > 100 µM (inactive)

Each recorded value in this set is attributed to ChEMBL document CHEMBL1201862.
